Tested on: MDA-MB-468
experiment_notes: normalised response (% of control), CellTiter-Glo; higher = more viable cells (100 = DMSO, 0 = benzethonium chloride kill control)
settings: incubation time: 72 h
Note to self: values exactly at 90% are yes (1). So normalised response at or above 90% is yes (1), below is no (0).

Known results for molecules:
1. Cn1cc(CNCC2CCN(c3ncc(C(=O)NO)cn3)CC2)c2ccccc21 [Quisinostat] (1 nM) :: yes (1)
2. CC(C)N(CCCNC(=O)Nc1ccc(C(C)(C)C)cc1)C[C@H]1O[C@@H](n2cc(Br)c3c(N)ncnc32)[C@H](O)[C@@H]1O [SGC0946] (10 nM) :: no (0)
3. Nc1cccc2c1CN(C1CCC(=O)NC1=O)C2=O (configuration not stated) [Lenalidomide] (1 nM) :: yes (1)
4. COc1cc(CCc2cc(NC(=O)c3ccc(N4CC(C)NC(C)C4)cc3)n[nH]2)cc(OC)c1 (configuration not stated) [AZD4547] (0.1 nM) :: yes (1)

Next up:
Could you verify whether the entry CO[C@@H](C(=O)N1Cc2[nH]nc(NC(=O)c3ccc(N4CCN(C)CC4)cc3)c2C1)c1ccccc1 [Danusertib] (1000 nM) shows normalised response of no less than 90%?
no (0)

----------
Measured normalised viability of individual entries
System: DU-4475
experiment_notes: normalised viability (% of control), CellTiter-Blue; higher = more viable cells (about 100 = DMSO control)
settings: incubation time: 72 h
Just the number in %, nothing appended.

Before answering, review these 5 worked examples.
1. Nc1ccccc1NC(=O)c1ccc(CNc2nccc(-c3cccnc3)n2)cc1 [Mocetinostat] (300 nM) :: 81.9
2. O=S(=O)(c1cccc2cnccc12)N1CCCNCC1 [Fasudil] (300 nM) :: 117
3. CCC/C=C/C=C/C(=O)O[C@H]1/C(=C/C(=O)OC)C[C@H]2C[C@H]([C@@H](C)O)OC(=O)C[C@H](O)C[C@@H]3C[C@H](OC(C)=O)C(C)(C)[C@](O)(C[C@@H]4C/C(=C/C(=O)OC)C[C@H](/C=C/C(C)(C)[C@]1(O)O2)O4)O3 [Bryostatin 1] (3 nM) :: 88.7
4. COc1cc(CCc2cc(NC(=O)c3ccc(N4CC(C)NC(C)C4)cc3)n[nH]2)cc(OC)c1 (stereo unspecified) [AZD4547] (30 nM) :: 92.7
5. C[C@]12C=CC(=O)C=C1CC[C@@H]1[C@@H]2[C@@H](O)C[C@@]2(C)[C@H]1CC[C@]2(O)C(=O)CO [Prednisolone] (300 nM) :: 113

# evaluate next
I have this molecule here, C[C@]12O[C@H](C[C@]1(O)CO)n1c3ccccc3c3c4c(c5c6ccccc6n2c5c31)CNC4=O [Lestaurtinib] (30 nM) , and I need its recorded normalised viability.
91.3

----------
Tested on: HCC1937
experiment_notes: normalised response (% of control), CellTiter-Glo; higher = more viable cells (100 = DMSO, 0 = benzethonium chloride kill control)
settings: incubation time: 72 h
quantity_name: normalised response (%)
Entry rule: numbers only, all in %.

Consider the molecule c1cc(CN2CCCNCCNCCCNCC2)ccc1CN1CCCNCCNCCCNCC1 [Plerixafor] (10000 nM) and give its measured normalised response.
97.3

----------
Listed here are compounds together with their documented normalised response.
Test system: MDA-MB-453
experiment_notes: normalised response (% of control), CellTiter-Glo; higher = more viable cells (100 = DMSO, 0 = benzethonium chloride kill control)
settings: incubation time: 72 h
Express your answer in %, writing the number without its unit.

Worked examples follow.
1) CC/C(=C(\c1ccc(O)cc1)c1ccc(OCCN(C)C)cc1)c1ccccc1 [4-hydroxytamoxifen] (10 nM) :: 112
2) O=S(=O)(c1cccc2cnccc12)N1CCCNCC1 [Fasudil] (50 nM) :: 104
3) CCC/C=C/C=C/C(=O)O[C@H]1/C(=C/C(=O)OC)C[C@H]2C[C@H]([C@@H](C)O)OC(=O)C[C@H](O)C[C@@H]3C[C@H](OC(C)=O)C(C)(C)[C@](O)(C[C@@H]4C/C(=C/C(=O)OC)C[C@H](/C=C/C(C)(C)[C@]1(O)O2)O4)O3 [Bryostatin 1] (0.01 nM) :: 109
4) CC(C)N(CCCNC(=O)Nc1ccc(C(C)(C)C)cc1)C[C@H]1O[C@@H](n2cc(Br)c3c(N)ncnc32)[C@H](O)[C@@H]1O [SGC0946] (10 nM) :: 89.4
5) CCN(CC)CCNC(=O)c1c(C)[nH]c(/C=C2\C(=O)Nc3ccc(F)cc32)c1C [Sunitinib] (0.1 nM) :: 106
6) CNC(=O)c1cc(Oc2ccc(NC(=O)Nc3ccc(Cl)c(C(F)(F)F)c3)cc2)ccn1 [Sorafenib] (100 nM) :: 90.5
7) CS(=O)(=O)N1CCN(Cc2cc3nc(-c4cccc5[nH]ncc45)nc(N4CCOCC4)c3s2)CC1 [Pictilisib] (1000 nM) :: 38.6
8) O=C(CCBr)N1CCN(C(=O)CCBr)CC1 [Pipobroman] (1 nM) :: 98.1
9) COc1cc(CCc2cc(NC(=O)c3ccc(N4CC(C)NC(C)C4)cc3)n[nH]2)cc(OC)c1 (stereo not given) [AZD4547] (0.1 nM) :: 97.5
10) O=C(NC[C@H](O)CO)c1ccncc1Nc1ccc(I)cc1F [Pimasertib] (1 nM) :: 105

Please give the measured normalised response for this compound: c1cc(CN2CCCNCCNCCCNCC2)ccc1CN1CCCNCCNCCCNCC1 [Plerixafor] (10 nM)
81.9

For the compound CC[C@@]1(O)C(=O)OCc2c1cc1n(c2=O)Cc2cc3c(CN(C)C)c(O)ccc3nc2-1 [Topotecan] (1000 nM) , what normalised response is on record?
87.6
